Target: T1, full-length hANGPTL4 (amino acid residues 26-406 of SEQ ID NO:476) with a C-terminal hexa-histidine tag (human, UniProt Q9BY76 26-406)
T1 construct: also called hANGPTL4-His; hANGPTL4(26-406)-His
T1 sequence: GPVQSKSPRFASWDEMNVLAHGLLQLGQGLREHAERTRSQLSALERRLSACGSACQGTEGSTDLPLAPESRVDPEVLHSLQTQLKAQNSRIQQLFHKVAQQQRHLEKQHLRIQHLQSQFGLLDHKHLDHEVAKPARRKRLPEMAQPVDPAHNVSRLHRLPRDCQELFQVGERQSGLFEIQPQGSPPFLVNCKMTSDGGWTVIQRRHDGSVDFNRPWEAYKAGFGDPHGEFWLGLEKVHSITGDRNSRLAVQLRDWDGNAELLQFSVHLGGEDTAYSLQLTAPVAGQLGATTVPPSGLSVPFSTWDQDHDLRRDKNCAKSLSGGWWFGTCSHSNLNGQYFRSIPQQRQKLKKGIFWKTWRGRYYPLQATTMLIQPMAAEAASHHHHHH
Assay: SPR (Biacore), 25° C., pH 7.2, antigen amino-coupled 450 RU
QUANTITY_NAME: koff (s⁻¹)
State the answer as a number, implicitly in s⁻¹.

Use these answered entries as a reference point.
>>> value_reported("H1H284P Fab fragment (Fab, V domains shown, Fab made by papain digestion of H1H284P (IgG1); also called H1H284 Fab) VH: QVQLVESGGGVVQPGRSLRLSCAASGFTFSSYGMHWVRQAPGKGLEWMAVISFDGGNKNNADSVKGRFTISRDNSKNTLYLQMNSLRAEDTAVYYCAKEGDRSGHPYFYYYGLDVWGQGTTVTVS VL: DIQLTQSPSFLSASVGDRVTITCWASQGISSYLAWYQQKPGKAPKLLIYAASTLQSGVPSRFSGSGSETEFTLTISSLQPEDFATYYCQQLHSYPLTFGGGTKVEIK")
0.000344
>>> value_reported("H1H284P (antibody, V domains shown, also called entire H1H284 mAb; Full mAb) VH: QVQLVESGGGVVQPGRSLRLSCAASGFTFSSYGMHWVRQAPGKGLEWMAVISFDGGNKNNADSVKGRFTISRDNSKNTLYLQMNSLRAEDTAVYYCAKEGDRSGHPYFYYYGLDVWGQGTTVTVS VL: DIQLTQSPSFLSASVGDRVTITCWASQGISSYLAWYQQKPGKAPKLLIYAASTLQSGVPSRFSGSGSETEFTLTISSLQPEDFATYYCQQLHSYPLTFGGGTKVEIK")
"8.85e-05"
>>> value_reported("H1H268P (antibody, V domains shown, also called entire H1H268 mAb; Full mAb) VH: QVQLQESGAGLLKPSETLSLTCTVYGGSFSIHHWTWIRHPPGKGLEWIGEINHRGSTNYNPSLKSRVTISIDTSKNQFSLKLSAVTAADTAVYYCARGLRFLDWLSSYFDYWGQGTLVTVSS VL: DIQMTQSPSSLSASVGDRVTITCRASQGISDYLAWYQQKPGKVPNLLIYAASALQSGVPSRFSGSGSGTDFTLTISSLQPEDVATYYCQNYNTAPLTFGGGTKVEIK")
0.0002

So for H1H268P Fab fragment (Fab, V domains shown, Fab made by papain digestion of H1H268P (IgG1); also called H1H268 Fab) VH: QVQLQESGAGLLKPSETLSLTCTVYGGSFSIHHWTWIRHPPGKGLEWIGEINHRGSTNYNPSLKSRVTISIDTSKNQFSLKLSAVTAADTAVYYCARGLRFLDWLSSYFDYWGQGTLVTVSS VL: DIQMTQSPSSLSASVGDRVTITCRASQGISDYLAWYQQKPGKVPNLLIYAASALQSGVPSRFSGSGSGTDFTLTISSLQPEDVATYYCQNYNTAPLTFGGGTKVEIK , the logged koff turned out to be 0.0118
